Attribution: the OPERA property sets (Mansouri et al. 2018)

PROPERTY MEASURED: logP

Example entries and their recorded answers appear below.
>>> reading("Cc1cccc(Cl)c1C(=O)O")
2.31
>>> reading("COC(=O)c1ccc(Br)cc1")
2.95
>>> reading("COC(=O)c1ccccc1I")
2.74
>>> reading("COC(=O)c1cccc([N+](=O)[O-])c1")
1.89
>>> reading("Cc1cccc(C)c1C(=O)O")
2.21
>>> reading("Oc1c(Br)cccc1Br")
3.36
>>> reading("Cc1cccc(Cl)c1O")
2.8
>>> reading("COC(=O)c1c(F)cccc1Cl")
2.42
>>> reading("CSc1ccccc1C(N)=O")
0.71
>>> reading("CCc1cccc(OC(C)=O)c1")
2.45

A = COC(=O)c1cccc(C)c1
B = N#Cc1ccccc1C(N)=O
For the two items A and B , which reports the higher logP value? Your choice should be expressed through its label. A
(A: 2.77, B: 0)

1 = CCOc1cccc(OC(C)=O)c1
2 = NC(=O)c1ccccc1[N+](=O)[O-]
For the two items 1 and 2 , which reports the higher logP value? Your choice should be expressed through its label. 1

a = COC(=O)c1cccc(Cl)c1
b = COc1cccc(OC(C)=O)c1
For the two items a and b , which reports the higher logP value? Your choice should be expressed through its label. a
(a: 2.85, b: 1.61)
